Kindly supply the reported bioavailability values for the records listed here.
# test.name: oral bioavailability in rats, LCMS detection
# Assay type: in vivo
# condition.parameters: rat, plasma, oral; rats; 10 mg/kg; LCMS; read-out: 6 h bioavailability determined by circulating plasma levels
Bridge positions count the residues as written; N and C are the ends. Peptide text beside a SMILES is read from it.
In your response, the unit should come after the numeric value.

[
  {
    "compound": "C[C@@H]1NC(=O)[C@@H]2CCCN2C(=O)[C@H](CC(N)=O)NC(=O)[C@@H]2CSSC[C@H](N)C(=O)N[C@H]3CSSC[C@H](NC1=O)C(=O)N[C@@H]([C@@H](C)O)C(=O)NCC(=O)N[C@H](C(=O)N[C@@H](Cc1ccc(O)cc1)C(=O)O)CSSC[C@H](NC(=O)[C@H](Cc1ccc(O)cc1)NC(=O)[C@H](CCC(=O)O)NC3=O)C(=O)N2 [SEQ ID NO:3] (H-CCEYCCNPACTGCY-OH; disulfide 1-6, 2-10, 5-13; N-terminus and C-terminus assumed)",
    "recorded.endpoint": "bioavailability",
    "assay.result": "0.11%"
  }
]

We next turn to a different compound, shown below.
Write down bioavailability measured for item C[C@@H]1NC(=O)[C@@H]2CCCN2C(=O)[C@H](CC(N)=O)NC(=O)[C@@H]2CSSC[C@H](N)C(=O)N[C@H]3CSSC[C@H](NC1=O)C(=O)N[C@@H]([C@@H](C)O)C(=O)NCC(=O)N[C@H](C(=O)O)CSSC[C@H](NC(=O)[C@H](Cc1ccc(O)cc1)NC(=O)[C@H](CCC(=O)O)NC3=O)C(=O)N2 [SEQ ID NO:6] (H-CCEYCCNPACTGC-OH; disulfide 1-6, 2-10, 5-13) 0.08%
